Kindly supply the reported inhibition values for the records listed here.
# tgt: Leucine-rich repeat serine/threonine-protein kinase 2 (Homo sapiens) (UniProt Q5S007)
# Sequence (Q5S007 whole entry): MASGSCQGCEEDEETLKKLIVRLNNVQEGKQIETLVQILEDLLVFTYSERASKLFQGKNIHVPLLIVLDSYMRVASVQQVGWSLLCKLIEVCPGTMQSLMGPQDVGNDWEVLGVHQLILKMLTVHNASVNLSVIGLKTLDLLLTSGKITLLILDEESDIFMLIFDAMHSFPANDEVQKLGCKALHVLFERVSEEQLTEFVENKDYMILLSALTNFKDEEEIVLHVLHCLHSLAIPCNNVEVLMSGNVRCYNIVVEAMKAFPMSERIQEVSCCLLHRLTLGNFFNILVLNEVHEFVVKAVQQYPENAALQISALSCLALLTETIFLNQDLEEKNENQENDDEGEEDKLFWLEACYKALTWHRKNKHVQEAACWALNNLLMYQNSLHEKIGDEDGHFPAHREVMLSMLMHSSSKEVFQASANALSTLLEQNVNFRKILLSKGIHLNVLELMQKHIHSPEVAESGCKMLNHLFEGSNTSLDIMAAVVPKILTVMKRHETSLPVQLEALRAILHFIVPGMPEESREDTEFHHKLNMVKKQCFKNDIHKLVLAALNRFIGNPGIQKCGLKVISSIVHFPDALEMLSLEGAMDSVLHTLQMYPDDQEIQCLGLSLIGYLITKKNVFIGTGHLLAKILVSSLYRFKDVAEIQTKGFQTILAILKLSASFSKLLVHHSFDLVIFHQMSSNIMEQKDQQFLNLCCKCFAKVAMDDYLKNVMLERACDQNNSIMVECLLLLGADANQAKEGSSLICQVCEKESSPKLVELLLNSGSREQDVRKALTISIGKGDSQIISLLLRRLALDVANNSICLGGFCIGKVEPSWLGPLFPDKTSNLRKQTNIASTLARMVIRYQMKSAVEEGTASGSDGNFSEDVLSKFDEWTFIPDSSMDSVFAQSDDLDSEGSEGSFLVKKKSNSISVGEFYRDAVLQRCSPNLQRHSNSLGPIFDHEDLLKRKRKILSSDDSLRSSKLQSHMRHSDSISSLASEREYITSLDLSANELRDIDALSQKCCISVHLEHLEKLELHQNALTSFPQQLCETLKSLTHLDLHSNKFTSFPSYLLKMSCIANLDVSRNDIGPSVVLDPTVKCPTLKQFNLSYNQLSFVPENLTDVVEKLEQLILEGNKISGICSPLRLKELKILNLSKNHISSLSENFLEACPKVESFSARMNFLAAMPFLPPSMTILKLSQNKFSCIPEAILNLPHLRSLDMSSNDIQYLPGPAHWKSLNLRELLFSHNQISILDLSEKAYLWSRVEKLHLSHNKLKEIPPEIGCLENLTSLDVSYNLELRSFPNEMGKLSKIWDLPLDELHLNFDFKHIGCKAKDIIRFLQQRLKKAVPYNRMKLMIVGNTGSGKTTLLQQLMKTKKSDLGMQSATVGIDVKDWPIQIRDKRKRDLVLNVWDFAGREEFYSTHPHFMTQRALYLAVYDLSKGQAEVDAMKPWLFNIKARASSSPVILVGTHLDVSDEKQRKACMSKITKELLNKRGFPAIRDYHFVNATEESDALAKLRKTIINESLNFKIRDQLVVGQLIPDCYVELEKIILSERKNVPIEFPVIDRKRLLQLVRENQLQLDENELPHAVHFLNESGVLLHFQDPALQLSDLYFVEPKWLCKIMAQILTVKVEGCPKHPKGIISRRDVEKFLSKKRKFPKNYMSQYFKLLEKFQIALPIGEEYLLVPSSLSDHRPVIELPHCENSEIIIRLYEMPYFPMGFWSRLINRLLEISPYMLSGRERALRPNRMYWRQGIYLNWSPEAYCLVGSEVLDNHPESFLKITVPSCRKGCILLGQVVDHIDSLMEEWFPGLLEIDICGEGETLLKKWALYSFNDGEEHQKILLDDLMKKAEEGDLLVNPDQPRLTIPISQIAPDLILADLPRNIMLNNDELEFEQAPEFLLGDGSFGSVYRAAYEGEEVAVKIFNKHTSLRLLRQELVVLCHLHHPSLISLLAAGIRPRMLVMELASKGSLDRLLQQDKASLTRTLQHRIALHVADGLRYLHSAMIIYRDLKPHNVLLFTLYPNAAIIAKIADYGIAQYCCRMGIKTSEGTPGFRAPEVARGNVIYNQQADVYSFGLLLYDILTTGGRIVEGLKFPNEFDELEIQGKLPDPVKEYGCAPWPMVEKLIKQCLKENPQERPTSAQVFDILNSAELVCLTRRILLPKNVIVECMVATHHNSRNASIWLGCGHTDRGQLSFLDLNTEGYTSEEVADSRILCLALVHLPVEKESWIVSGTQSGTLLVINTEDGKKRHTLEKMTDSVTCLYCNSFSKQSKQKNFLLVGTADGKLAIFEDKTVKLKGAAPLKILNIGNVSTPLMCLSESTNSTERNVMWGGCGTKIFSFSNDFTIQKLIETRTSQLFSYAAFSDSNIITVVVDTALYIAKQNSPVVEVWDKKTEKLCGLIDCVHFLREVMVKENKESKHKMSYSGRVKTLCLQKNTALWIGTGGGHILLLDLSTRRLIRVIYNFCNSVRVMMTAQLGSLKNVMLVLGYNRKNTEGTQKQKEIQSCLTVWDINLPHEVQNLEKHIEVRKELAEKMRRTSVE
# applied conditions: at 1 µM;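 further: mean percent inhibition of LRRK2 measured in the GSK PKIS kinase inhibitor set screen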
Only the number, expressed in %, is required.

Query: May I ask what inhibition has been recorded for Cc1ccc(-c2cc3c(NC(=O)C4CC4)ncnc3o2)cc1 ?
Response: 12.2

Query: // query: CS(=O)(=O)CCNCc1ccc(-c2ccc3ncnc(Nc4ccc(OCc5ccccc5)cc4)c3c2)o1
Response: 6.64

Query: // query: N#Cc1ccc2c(-c3ccnc(NC4CC4)n3)c(-c3ccc(F)cc3)nn2c1
Response: -2.22

Query: // query: CS(=O)(=O)Nc1ccc(-c2ccc3c(NC(=O)C4CC4)n[nH]c3c2)cc1
Response: 5.46

Query: // query: CCn1c(-c2nonc2N)nc2cncc(C(=O)NCCNC)c21
Response: 28.8

Query: // query: CN(C)CCNC(=O)Nc1ccc(N(C)c2ccnc(Nc3ccc(CS(C)(=O)=O)cc3)n2)cc1
Response: 11.5

Query: // query: COc1cc2c(cc1Nc1nc(Nc3cccc(F)c3C(N)=O)c3cc[nH]c3n1)N(C(=O)CN1CCN(C(C)C)CC1)CC2
Response: 76.8

Query: // query: COc1cccc(-n2ncc3c(N/N=C/c4ccc(C(=O)NCCN(C)C)cc4)ncnc32)c1
Response: 17.2

Query: // query: NS(=O)(=O)c1ccc(N/N=C2\C(=O)Nc3ccc(C(=O)NCc4ccncc4)cc32)cc1
Response: 11.6
